# measured on: Induced myeloid leukemia cell differentiation protein Mcl-1 (Homo sapiens) (UniProt Q07820)
# Sequence (Q07820 whole entry, looked up): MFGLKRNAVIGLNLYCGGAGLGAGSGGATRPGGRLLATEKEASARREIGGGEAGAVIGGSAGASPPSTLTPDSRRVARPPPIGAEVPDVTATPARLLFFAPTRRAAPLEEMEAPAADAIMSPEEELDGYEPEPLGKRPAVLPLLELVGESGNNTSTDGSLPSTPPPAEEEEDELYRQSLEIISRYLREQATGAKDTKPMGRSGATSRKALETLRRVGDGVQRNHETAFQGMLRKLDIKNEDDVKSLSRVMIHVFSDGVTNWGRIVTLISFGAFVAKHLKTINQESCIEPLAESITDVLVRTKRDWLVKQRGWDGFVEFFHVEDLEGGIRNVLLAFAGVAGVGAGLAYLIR
# test: Mcl-1/Noxa binding inhibitor potency, dose response, biochemical, TR-FRET (AID 1417)
# recorded conditions: Mcl-1/Noxa peptide interaction, cell-free TR-FRET (terbium/rhodamine), 2 h; measured here: absolute IC50
pIC50: −log10 of the molar value.
Task for the reader: assign each of the following compounds its reported pIC50.

Exam item: Dear colleague, I am looking for the recorded pIC50 of the following compound: O=C(N/N=C/c1ccc(-c2ccc(Cl)c(C(=O)O)c2)o1)c1cc2c(ccc3ccccc32)o1
Marked response: > 6.40

Exam item: Dear colleague, I am looking for the recorded pIC50 of the following compound: CC(C(=O)NC1CCCC1)N(Cc1ccco1)C(=O)c1snc(C(=O)NC2CCCC2)c1N (centres undefined)
Marked response: < 4.27

Exam item: Dear colleague, I am looking for the recorded pIC50 of the following compound: CCN1C(=O)/C(=C2/Sc3ccc(OC)cc3N2C)SC1=Nc1cccc(O)c1
Marked response: < 4.27

Exam item: Dear colleague, I am looking for the recorded pIC50 of the following compound: CC(C)CCC(CCN1CCCC1)c1ccc2c(c1)OCO2 (centres undefined)
Marked response: < 4.27

Exam item: Dear colleague, I am looking for the recorded pIC50 of the following compound: O=C1c2ccccc2C(=O)N1/N=C/c1ccc(O)c(O)c1O
Marked response: > 6.40

Exam item: Dear colleague, I am looking for the recorded pIC50 of the following compound: CCCc1ccc(/C=C2\C(=O)c3ccccc3C(O)=C2C(=O)OCC)cc1
Marked response: < 4.27

Exam item: Dear colleague, I am looking for the recorded pIC50 of the following compound: CC(C)Oc1ccc(C(=O)Nc2ccc(N(C)C)cc2)cc1
Marked response: < 4.27

Exam item: Dear colleague, I am looking for the recorded pIC50 of the following compound: O=c1c2c3nc4ccccc4nc3n(Cc3ccccc3)c2ncn1Cc1ccco1
Marked response: < 4.27

Exam item: Dear colleague, I am looking for the recorded pIC50 of the following compound: Cc1ccc(/C=C2\SC(=S)N(Cc3ccccc3)C2=O)o1
Marked response: < 4.27

Exam item: Dear colleague, I am looking for the recorded pIC50 of the following compound: COc1cc(-c2nnc(SCc3cc(=O)oc4cc(O)c(O)cc34)o2)cc(OC)c1OC
Marked response: > 6.40

Exam item: Dear colleague, I am looking for the recorded pIC50 of the following compound: COc1ccc(S(=O)(=O)Nc2cc(Sc3ncn[nH]3)c(O)c3ccccc23)cc1
Marked response: > 6.40

Exam item: Dear colleague, I am looking for the recorded pIC50 of the following compound: Oc1ccc(N=Nc2cccc(Cl)c2)cc1C=Nc1ccc(N2CCOCC2)cc1
Marked response: < 4.27

Exam item: Dear colleague, I am looking for the recorded pIC50 of the following compound: C=CCN1C(=O)/C(=C2/C(=O)N(CC(=O)O)c3ccccc32)S/C1=N/c1nccs1
Marked response: > 6.40

Exam item: Dear colleague, I am looking for the recorded pIC50 of the following compound: O=C1CCCC2=C1C(c1ccc(O)c(O)c1)c1c(ccc3ncccc13)N2 (centres undefined)
Marked response: > 6.40
